- Tested on: Fibroblast
- measurement.protocol: Incucyte cell viability with human fibroblast; note: unitless GR value; below 1 slowed growth and below 0 cell loss
- Format: toxicity, cell-based
- test.context: 18 h, 10 µM, compound concentration 10 uM, replicate number 1
parameter: Growth Rate

>>> value_measured("O=C(NCCN1CCOCC1)c1ccc2nn(CCOc3ccc(Cl)cc3)cc2c1")
0.86
>>> value_measured("COc1cc2nc(-c3cc(F)ccc3O)nc(N[C@@H]3CNC[C@H]3C(C)(C)O)c2cc1OC.Cl.Cl")
0.18
>>> value_measured("COCc1c(-c2cc3cc(C)cc(OC)c3s2)c2c(N)ncnn2c1CN[C@@H]1CCNC1=O")
0.59
>>> value_measured("CCOP(=O)(OCC)C(=Cc1cc(C(C)(C)C)c(O)c(C(C)(C)C)c1)P(=O)(OCC)OCC")
0.39
>>> value_measured("O=C(N[C@H](Cc1ccccc1)C(=O)O)c1cccc(OCc2cccnc2)c1.O=CO")
0.93
>>> value_measured("Cl.Cl.N=C(N)NCCC[C@H](NC(=O)CC1(CC(=O)N2CCN(C3c4ccccc4NC(=O)c4ccccc43)CC2)CCCC1)C(=O)NCCn1c(=O)n(-c2ccccc2)n(-c2ccccc2)c1=O (stereo not given in full)")
0.59
>>> value_measured("CCO[C@H](COc1ccc(C(F)(F)F)cc1)CSc1ccc(OCC(=O)[O-])c(C)c1.[Na+]")
0.93
>>> value_measured("CN1[C@@H](CC(=O)c2ccccc2)CCC[C@H]1C[C@H](O)c1ccccc1.Cl [LOBELINE HYDROCHLORIDE]")
0.91
>>> value_measured("Cc1cc(NC(=O)c2cccc(NC(=O)/C=C/CN(C)C)c2)ccc1Nc1nccc(-c2cccnc2)n1")
-0.24
>>> value_measured("O=C(NCc1ccc(F)cc1)C1CCN(S(=O)(=O)c2cc(Cl)cc(Cl)c2)CC1")
0.84
>>> value_measured("Cc1ccc2c(NS(=O)(=O)c3ccccc3Cl)cccc2c1Oc1ncccc1-c1ccnc(N[C@H]2CCCNC2)n1.Cl")
0.34
>>> value_measured("CCOCCn1cc(C(=O)Nc2ccc(-n3nc(-c4cccnc4)cc3C(F)(F)F)cn2)ccc1=O [BI 1935]")
0.83
>>> value_measured("COC[C@H](O)Cn1c(=O)cnn(-c2ccc(Cl)c(C(=O)NCC3(O)CCCCCC3)c2)c1=O [CE-224535]")
-0.48
>>> value_measured("CN1CCN(C(=O)Cc2ccc(N/C(=C3\\C(=O)Nc4cc(Cl)ccc43)c3ccccc3)cc2)CC1")
0.44
>>> value_measured("Cl.NCC(O)c1ccc(O)cc1 (stereo not given) [OCTOPAMINE HYDROCHLORIDE]")
-0.19
>>> value_measured("CCNc1ccc(-c2nn(-c3ccccc3C)c3c2C(C)Cc2nc(NC(=O)OC)sc2-3)cn1.O=C(O)C(F)(F)F (stereo not given)")
-0.28
>>> value_measured("COCCNc1cc(NC(=O)N2CCCc3cc(CN4CCN(C)CC4=O)c(C=O)nc32)ncc1C#N [FGF401]")
0.24
>>> value_measured("O=S(=O)(Nc1ccc(C(O)(C(F)(F)F)C(F)(F)F)cc1)c1cccs1")
0.89
>>> value_measured("COc1cccc(Cn2cc(C(=O)Nc3ccc(C)c(S(=O)(=O)N4CCOCC4)c3)c(-c3ccc(C)cc3)n2)c1")
0.89
>>> value_measured("CCCCc1oc2ccccc2c1C(=O)c1cc(I)c(OCCN(CC)CC)c(I)c1.Cl [AMIODARONE HYDROCHLORIDE]")
-0.02
>>> value_measured("O=C(Nc1c[nH]nc1-c1nc2cc(CN3CCOCC3)ccc2[nH]1)NC1CC1 [AT-9283]")
0.66
>>> value_measured("CCC(F)(F)c1cc(N2CCC(S(C)(=O)=O)CC2)nc2sc(C(N)=O)c(N)c12 [BI-605906]")
0.99
>>> value_measured("COCCNc1nc2ccc(C#CC3(O)CCCCC3)cc2n1-c1ccnc(N)n1")
0.24
>>> value_measured("CC(C)c1ccc(CC(=O)N[C@H](C)c2ccc(OCC(F)(F)F)cn2)cc1 [SUVECALTAMIDE]")
0.11
>>> value_measured("O=C(NC1CCNCC1)c1n[nH]cc1NC(=O)c1c(Cl)cccc1Cl [AT-7519]")
0.17
